target: OR1E2 (Homo sapiens) (UniProt P47887); settings: stereoisomer not certain
Sequence (P47887 whole entry): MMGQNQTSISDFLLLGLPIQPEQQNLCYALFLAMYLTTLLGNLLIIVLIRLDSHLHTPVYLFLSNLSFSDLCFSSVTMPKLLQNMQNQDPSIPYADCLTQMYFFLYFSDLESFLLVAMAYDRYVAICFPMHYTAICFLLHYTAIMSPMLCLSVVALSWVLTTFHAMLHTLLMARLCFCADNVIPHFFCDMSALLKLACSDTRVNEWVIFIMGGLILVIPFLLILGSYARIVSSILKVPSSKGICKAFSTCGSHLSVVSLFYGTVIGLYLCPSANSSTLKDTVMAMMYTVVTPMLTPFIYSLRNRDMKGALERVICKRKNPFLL
attributeMeasured: odorant receptor agonist call

Here is how some molecules turned out for odorant receptor agonist call.
{"columns": ["molecule", "result"],
 "data": [
  ["CCC1OC(C)=C(O)C1=O (stereo not drawn)", "inactive"],
  ["CCC1OC(=O)C(O)=C1C (stereo not drawn)", "inactive"],
  ["CC1=NC(C)C(C)S1 (stereo not drawn)", "inactive"],
  ["CC1=C(O)C(=O)OC1C (stereo not drawn)", "inactive"],
  ["CCCCCC(=O)C(C)C(C)=O (stereo not drawn)", "inactive"],
  ["CCCCC(S)C(C)CO (stereo not drawn)", "inactive"]
]}

Challenge: OR1E2 (Homo sapiens) (UniProt P47887) / odorant receptor agonist call / CCCC(S)CCOC(C)=O (stereo not drawn) : value?
Response given: inactive

Challenge: OR1E2 (Homo sapiens) (UniProt P47887) / odorant receptor agonist call / CC1CCCCCCCCCCCCC(=O)C1 (stereo not drawn) : value?
Response given: inactive

* * *

Target: UniProt E9Q4X7
Sequence (whole entry): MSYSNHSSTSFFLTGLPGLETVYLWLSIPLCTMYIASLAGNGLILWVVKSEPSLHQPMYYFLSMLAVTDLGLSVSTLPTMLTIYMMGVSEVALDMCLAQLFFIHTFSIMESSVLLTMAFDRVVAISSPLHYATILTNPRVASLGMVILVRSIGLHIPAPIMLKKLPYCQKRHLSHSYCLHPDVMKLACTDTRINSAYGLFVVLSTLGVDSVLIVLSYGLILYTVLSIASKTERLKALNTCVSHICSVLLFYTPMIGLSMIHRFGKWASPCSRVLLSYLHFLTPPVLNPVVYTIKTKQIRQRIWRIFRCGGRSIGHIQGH
Settings: stereoisomer not certain
Hi there, use one of these labels in your reply, thanks! yes for active, no for inactive

Study these solved cases before continuing.
{"columns": ["compound", "cat"],
 "data": [
  ["CC12CCC(CC1=O)C2(C)C (stereo not given)", "no"],
  ["CCCCCC(C)O (stereo not given)", "no"],
  ["C=C1C2CCC(C2)C1(C)C (stereo not given)", "no"],
  ["CCCCCCC(C)=O", "no"],
  ["CCCCC=O", "no"],
  ["CSSCc1ccco1", "no"]
]}

Challenge: What outcome does the record of this test show for CCCCCCC=CC=O ?
Response given: no

Challenge: What outcome does the record of this test show for CCc1occc(=O)c1O ?
Response given: no

Challenge: What outcome does the record of this test show for CC(C)=CCCC(C)=CCO ?
Response given: no

* * *

target: UniProt Q8VGP6; conditions: stereoisomer not certain
Sequence (Q8VGP6 as listed by the source): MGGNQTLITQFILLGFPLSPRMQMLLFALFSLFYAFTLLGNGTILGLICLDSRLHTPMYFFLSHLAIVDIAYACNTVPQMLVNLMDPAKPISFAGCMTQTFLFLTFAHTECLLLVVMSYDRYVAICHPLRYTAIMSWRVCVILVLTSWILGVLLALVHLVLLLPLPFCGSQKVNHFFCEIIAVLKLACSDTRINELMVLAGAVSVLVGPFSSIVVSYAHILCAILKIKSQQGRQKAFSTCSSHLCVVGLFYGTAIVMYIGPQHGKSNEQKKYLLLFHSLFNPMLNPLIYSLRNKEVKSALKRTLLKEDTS
Hi there, use one of these labels in your reply, thanks! true (1) for active, false (0) for inactive

Study these solved cases before continuing.
{"columns": ["compound", "cat"],
 "data": [
  ["CCCCCCC(=O)[O-].[H+]", "false (0)"],
  ["CCCCCC(=O)CC", "false (0)"],
  ["CCCCCO", "false (0)"]
]}

// switching to the query compound
Challenge: What outcome does the record of this test show for CCCCCCCCCC(=O)[O-].[H+] ?
Response given: false (0)

* * *

system: O14K1 D119Y; details: stereoisomer not certain
Sequence (as listed by the source, stated change not applied): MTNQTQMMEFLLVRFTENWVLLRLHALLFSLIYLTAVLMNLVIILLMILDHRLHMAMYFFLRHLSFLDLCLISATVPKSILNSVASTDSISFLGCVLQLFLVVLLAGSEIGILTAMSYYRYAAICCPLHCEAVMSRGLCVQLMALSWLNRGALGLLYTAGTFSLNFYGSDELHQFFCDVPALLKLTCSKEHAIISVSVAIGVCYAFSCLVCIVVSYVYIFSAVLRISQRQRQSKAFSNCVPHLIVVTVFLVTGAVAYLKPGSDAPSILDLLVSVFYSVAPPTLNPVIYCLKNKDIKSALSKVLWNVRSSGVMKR

{"columns": ["molecule", "odorant receptor agonist call"],
 "data": [
  ["CCCCCCC=CCCC=O", "inactive"],
  ["CC1=C(O)C(=O)OC1C (centres undefined)", "inactive"],
  ["CCC1OC(C)=C(O)C1=O (centres undefined)", "inactive"],
  ["CCCC(S)CCOC(C)=O (centres undefined)", "inactive"]
]}
